Target: membrane PD-L1 (mPD-L1) (Homo sapiens, UniProt Q9NZQ7)
Construct: endogenous in cells; host or cells: HT-29, A-549, MCF-7
Sequence (Q9NZQ7 19-290): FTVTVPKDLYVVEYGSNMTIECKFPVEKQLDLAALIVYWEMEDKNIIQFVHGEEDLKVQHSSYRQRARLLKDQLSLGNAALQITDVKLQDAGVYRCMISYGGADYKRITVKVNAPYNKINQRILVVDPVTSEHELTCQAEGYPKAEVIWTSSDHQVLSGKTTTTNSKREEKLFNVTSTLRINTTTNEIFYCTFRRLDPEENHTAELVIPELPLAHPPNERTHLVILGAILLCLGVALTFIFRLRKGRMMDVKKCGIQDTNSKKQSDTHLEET
Assay: Membrane PD-L1 relative quantification by flow cytometry
Format: cell-based
Details: HT-29; 24 h; 100 or 10 μM (Table 7); percentage referred to DMSO control
value-kind: mPD-L1 relative detection, HT-29 (%)

molecule: Cc1ccc(Cn2cc(-c3ccc(N)cc3)nn2)cc1
val: 87
//
molecule: Cc1ccccc1Cn1cc(-c2ccc(N)cc2)nn1
val: 74

[P] Cc1c(COc2ccc(CN3CCCCC3C(=O)O)cc2Br)cccc1-c1ccccc1 (centres unmarked) [BMS-8, reference compound]
[Q] Cc1cccc(Cn2cc(-c3ccc(N)cc3)nn2)c1
Among P and Q , which shows a numerically higher mPD-L1 relative detection, HT-29 result? Lab note: record the label of whichever item you select. P
(P: 95%, Q: 66%)
